Hello, the source for this data is ChEMBL document CHEMBL3507680, in case you need it.

Assay: Human HepG2 cell viability assay in 384 well format
Type: toxicity, cell-based
Parameters: dose 125 nL, time 70.5 hour; concentration not given beside the values
Details: HepG2 cells, read-out: Inhibition
Quick reference: cytotoxicity at 70.5 h of the listed items.
readout-name: cytotoxicity at 70.5 h (%)

- compound: "CCC(C)(C)C(=O)NCCCOC1CCOC1 (stereo not given)"
  observed-result: 2.9
- compound: "CN(C)C(=O)CCC1CCCN(Cc2ccc(-c3cccnc3)cc2)C1 (stereo not given)"
  observed-result: -10.4
- compound: "CN(C)c1nc(N2CCCC2)nc2c1CCN(C(=O)c1ccoc1)CC2"
  observed-result: 0.617
- compound: "CCn1cc(CN2CCCn3nc(CNC(=O)C4CCC4)cc3C2)cn1"
  observed-result: -9
- compound: "Cc1cc(-c2nnc(SCC(=O)O)n2C(C)c2ccccc2)nn1C (stereo not given)"
  observed-result: -0.677
- compound: "CC(C)n1[nH]c(=O)c2c1NC(=O)CC2c1ccncc1 (stereo not given)"
  observed-result: -11.3
- compound: "Cc1ccc(CNC(=O)CN2CCN(CCO)CC2)s1"
  observed-result: -6.79
- compound: "CC(C)(C)CNC1(Cc2cc(C(C)(C)O)on2)COC1"
  observed-result: -7.44
- compound: "CC(C)c1cc(=O)[nH]c(-n2nc(C3CC3)cc2N)n1"
  observed-result: 58.1
- compound: "COCCn1cnc2c(F)cc(Br)cc2c1=O"
  observed-result: -3.14

---

Quick reference: cytotoxicity at 70.5 h of the listed items.
Assay: Human HepG2 cell viability assay in 384 well format
Type: toxicity, cell-based
Set-up: dose 125 nL, time 70.5 hour; concentration not given beside the values
Details: HepG2 cells, read-out: Inhibition

- compound: "Cc1ccc2cc(C(=O)NCCn3nc4ccccn4c3=O)[nH]c2c1"
  cytotoxicity at 70.5 h: "8.99%"
- compound: "NCCn1cc(C(=O)NCc2ccccc2-n2cccn2)nn1"
  cytotoxicity at 70.5 h: "-4.33%"
- compound: "CCOC(=O)C1(Cc2ccccc2)CCCN(Cc2nccn2CC)C1 (stereo not given)"
  cytotoxicity at 70.5 h: "-0.0866%"
- compound: "CN(C)CC(=O)N1CCOCC(Cc2ccccn2)C1 (stereo not given)"
  cytotoxicity at 70.5 h: "-13.2%"
- compound: "O=C1COC2(CCN(c3ncccn3)CC2)CN1"
  cytotoxicity at 70.5 h: "-1.8%"
- compound: "O=C1CCCN1CCCN1CCCCC1Cn1cncn1 (stereo not given)"
  cytotoxicity at 70.5 h: "-5.51%"
- compound: "Cc1cnn(CC(=O)N2CCCN(c3nc(C)cs3)CC2)c1"
  cytotoxicity at 70.5 h: "0.581%"
- compound: "CC(C)OC[C@H]1CCC[C@]12CN(C(=O)C1CCOCC1)CCO2"
  cytotoxicity at 70.5 h: "-8.49%"
- compound: "CN1CC(=O)N(c2ccsc2)CC12CCN(C(=O)Nc1ccccc1)C2 (stereo not given)"
  cytotoxicity at 70.5 h: "-4.43%"
- compound: "Cn1cc(CN2CCCC3(CCCCN3S(C)(=O)=O)C2)cn1 (stereo not given)"
  cytotoxicity at 70.5 h: "-9.02%"
- compound: "COc1ccc(CC(=O)N2CCN(Cc3ccco3)C[C@@H]2C)cc1"
  cytotoxicity at 70.5 h: "-7.32%"
- compound: "CN(C)CCOc1ccccc1N1CCN(C(=O)C(C)(C)C#N)CC1"
  cytotoxicity at 70.5 h: "-0.199%"
- compound: "COC[C@H]1CC[C@H]2[C@H](CCN2S(=O)(=O)c2ccccc2)O1"
  cytotoxicity at 70.5 h: "5.05%"
- compound: "CCOCCCNC(=O)CN(c1ccc(C)c(C)c1)S(C)(=O)=O"
  cytotoxicity at 70.5 h: "-9.65%"
- compound: "CC[C@H](C)[C@@H](CO)NC(C)Cc1ccccc1F (stereo not given in full)"
  cytotoxicity at 70.5 h: "-2.57%"

---

Quick reference: cytotoxicity at 70.5 h of the listed items.
Assay: Human HepG2 cell viability assay in 384 well format
Assay type: toxicity, cell-based
Design: dose 125 nL, time 70.5 hour; concentration not given beside the values
Conditions: HepG2 cells, read-out: Inhibition
readout-name: cytotoxicity at 70.5 h (%)

- compound: "Cc1nc(CNc2nc(-c3ccco3)nc3c2CCNCC3)n[nH]1"
  unit-abbreviation: "%"
  observed-result: -5.4
- compound: "Cc1cnc(N2CCOC3(CCCN(c4ncccn4)C3)C2)nc1 (configuration not stated)"
  unit-abbreviation: "%"
  observed-result: -4.18
- compound: "CNc1cncc(C2CCCN2S(=O)(=O)c2ccccc2)n1 (configuration not stated)"
  unit-abbreviation: "%"
  observed-result: 0.983
- compound: "Cc1n[nH]c(C2CN(C(=O)CCc3cscn3)CCO2)n1 (configuration not stated)"
  unit-abbreviation: "%"
  observed-result: -1.63
- compound: "Cc1cc(-c2cc(-c3cc(CC(=O)O)cs3)nc(N)c2C#N)oc1C"
  unit-abbreviation: "%"
  observed-result: -12.1
- compound: "Cc1cccc(CN2CC3(CCNCC3)OCC2=O)n1"
  unit-abbreviation: "%"
  observed-result: 0.469
- compound: "Cc1ccsc1C(CNC(=O)c1cc(=O)[nH]c(=O)[nH]1)N(C)C (configuration not stated)"
  unit-abbreviation: "%"
  observed-result: 17.7
- compound: "CCCNC(=O)c1cc(Br)cc(S(=O)(=O)N2CCOCC2)c1F"
  unit-abbreviation: "%"
  observed-result: -0.419
- compound: "O=C(CCc1cc2n(n1)CCCNC2)N1CCC(N2CCOC2=O)CC1"
  unit-abbreviation: "%"
  observed-result: -3.48
- compound: "CC(C)[C@H](NS(C)(=O)=O)C(=O)NCc1cc(-c2cccc(Cl)c2)nn1C"
  unit-abbreviation: "%"
  observed-result: 6.72
- compound: "Cc1nnc([C@@H]2CCO[C@@H]3CCN(C(=O)Cc4ccccn4)C[C@@H]32)o1"
  unit-abbreviation: "%"
  observed-result: -0.42
- compound: "O=C(NCC1CC1)C1CCC2(CCN(C(=O)c3cccnc3)CC2)O1 (configuration not stated)"
  unit-abbreviation: "%"
  observed-result: -9.48

---

Test: Human HepG2 cell viability assay in 384 well format
Assay type: toxicity, cell-based
Design: dose 125 nL, time 70.5 hour; concentration not given beside the values
Settings: HepG2 cells, read-out: Inhibition

- compound: "Cc1ncsc1CCN(C)Cc1ccc(CO)o1"
  cytotoxicity at 70.5 h, %: -5.5
- compound: "CN1CC2(CCCN(Cc3cccc(Oc4ccccc4)c3)C2)OC1=O (stereo unspecified)"
  cytotoxicity at 70.5 h, %: 24.6
- compound: "COc1ccc(C(=O)O)cc1-c1cccc2c1CCNC2"
  cytotoxicity at 70.5 h, %: -11.6
- compound: "NC(=O)CN1CCCN(C(=O)COc2cccc(F)c2)CC1"
  cytotoxicity at 70.5 h, %: -25.4
- compound: "Cc1ccc(C(=O)NCCCN2CCOCC2)c(Cl)c1"
  cytotoxicity at 70.5 h, %: -6.07
- compound: "CCN(Cc1nc2c(cnn2C)c(=O)[nH]1)c1cccc(C)c1"
  cytotoxicity at 70.5 h, %: 4.24
- compound: "O=C1C(NS(=O)(=O)c2ccc(F)c(F)c2)CCN1Cc1ccccc1 (stereo unspecified)"
  cytotoxicity at 70.5 h, %: -7.62
- compound: "CCOCC1CN(Cc2ccco2)Cc2ccnn2C1 (stereo unspecified)"
  cytotoxicity at 70.5 h, %: -5.17
- compound: "C[C@@H]1CN(C2CCN(Cc3cnc(-c4cccs4)nc3)CC2)C[C@H](C)O1"
  cytotoxicity at 70.5 h, %: 1.06
- compound: "COC(=O)c1cc(C(=O)N2CCCCCC2)n(-c2ccccc2)n1"
  cytotoxicity at 70.5 h, %: 11.6
- compound: "CC(C)(NC(=O)c1ccc(-c2ccc(F)cc2)s1)C(N)=O"
  cytotoxicity at 70.5 h, %: 4.62
- compound: "O=C(c1cccc(F)c1Cl)N(CCO)CC1CC1"
  cytotoxicity at 70.5 h, %: -1.98
- compound: "COC1CCN(c2cc(C(C)C)nc3ccnn23)C1 (stereo unspecified)"
  cytotoxicity at 70.5 h, %: 5.73
- compound: "CC(=O)NCCC(=O)Nc1cccc(N2CCN(CC3CC3)CC2)c1"
  cytotoxicity at 70.5 h, %: -0.54
- compound: "CNC(=O)c1cc(-c2ccccc2)nc2ncnn12"
  cytotoxicity at 70.5 h, %: 7.79
- compound: "CC(C)N1CCCC(N2CCOC3(CCCC3)C2)C1=O (stereo unspecified)"
  cytotoxicity at 70.5 h, %: -7.02
- compound: "COCc1nc(C(=O)N2CCCC(n3ccnc3C)C2)cs1 (stereo unspecified)"
  cytotoxicity at 70.5 h, %: -18.6
- compound: "O=C(C1CNCCO1)N1CCCC(c2ccccc2)(c2ccccc2)C1 (stereo unspecified)"
  cytotoxicity at 70.5 h, %: -0.462
- compound: "Cc1nc2c(c(NC(C)C)n1)CCN(C(=O)c1ccno1)CC2"
  cytotoxicity at 70.5 h, %: -6.32
- compound: "CCNC(=O)NC(=O)CNC(C)(CC)c1nccs1 (stereo unspecified)"
  cytotoxicity at 70.5 h, %: -1.38
- compound: "CC(C)(C)c1cc(CN2C[C@H]3CC[C@@H]2CN(Cc2cscn2)C3)n[nH]1"
  cytotoxicity at 70.5 h, %: 13.7
- compound: "Cc1nc2cc(C3CCN(Cc4cccc(F)c4F)C3)nn2c(O)c1C (stereo unspecified)"
  cytotoxicity at 70.5 h, %: -20.4
- compound: "Cc1cc(C)n(CC(C)CNC(=O)[C@@H](C)NC(=O)OC(C)(C)C)n1 (stereo partly specified)"
  cytotoxicity at 70.5 h, %: -27.5
- compound: "O=C(CN1CC(n2cccn2)C1)NCCc1c[nH]c2ccccc12"
  cytotoxicity at 70.5 h, %: -13.2
- compound: "O=C(O)[C@@H]1CN(C(=O)c2ccc3[nH]nnc3c2)C[C@H]1c1cccc(F)c1"
  cytotoxicity at 70.5 h, %: -8.9
- compound: "O=C(c1ccc(-n2cccn2)nc1)N1CCC(c2ccn[nH]2)C1 (stereo unspecified)"
  cytotoxicity at 70.5 h, %: -8.23
- compound: "COCC[C@]1(O)CCN(C(=O)CCn2c(C)cccc2=O)C[C@H]1C"
  cytotoxicity at 70.5 h, %: 12.1
- compound: "CCn1ccnc1-c1nccn1-c1ccccc1CN1CCOCC1"
  cytotoxicity at 70.5 h, %: -8.91
- compound: "CCC(C)(C)NC(=O)c1ccc(NC(=O)NCc2cc(C)on2)cc1"
  cytotoxicity at 70.5 h, %: -6.36
- compound: "Cc1cccc(-c2nc(CN3CCc4c(ncn4C)C3)no2)c1"
  cytotoxicity at 70.5 h, %: 20.5
- compound: "Cn1ncnc1-c1ccnc(NCCCc2ccncc2)n1"
  cytotoxicity at 70.5 h, %: -17.5
- compound: "CCCn1ccnc1-c1nccn1CCN(C)C"
  cytotoxicity at 70.5 h, %: -2.58
- compound: "CCc1c(NCc2cccnc2)cnn1CC(C)C"
  cytotoxicity at 70.5 h, %: -5.5
- compound: "O=C(c1cscn1)N1CCC2(CN(Cc3nccs3)C2)C1"
  cytotoxicity at 70.5 h, %: -11.9
- compound: "O=C1CC(c2ccc(F)cc2)c2cnn(C3CCCC3)c2N1 (stereo unspecified)"
  cytotoxicity at 70.5 h, %: -7.98
- compound: "CN1CC2(CCN(C(=O)c3coc4c3C(=O)CCC4)C2)OC1=O (stereo unspecified)"
  cytotoxicity at 70.5 h, %: -6.28
